Test: NCI Yeast Anticancer Drug Screen. Data for the rad14 strain (AID 159)
Settings: S. cerevisiae rad14 strain growth inhibition; at 33.0 µM
Protocol: Growth inhibition of yeast strains with defined genetic alterations is measured as a screen for potential anti-cancer activity. Selected strains with alterations in DNA damage repair or cell cycle control were exposed to compounds and growth inhibition was measured relative to vehicle treated controls. The strain used in this assay is rad14
The panel holds about 79,000 compounds, 15% with a hit somewhere; the sample as a whole holds those more often. Calls of active or inactive are those of the source. Cut-off read from the data, not from the text of the source: active = growth inhibition above about 70%; inactive = the rest.
Respond with a class label; see TRUE for active, FALSE for inactive

Known results for molecules:
>>> df
                                   molecule  qualitative_label
0  CC(C)(C)[Si](C)(C)OCC1CCC(n2cnc3c(NC(=O)c4ccccc4)ncnc32)O1 (stereo not given)              FALSE
1          COC(=O)/C=C(/C(=O)OC)C(Cl)(Cl)Cl               TRUE
2  CC(C)(C)CC(C)(C)c1cc(O)c(O)c(CN2CCCCC2)c1              FALSE

Record lookup: outcome of this test for c1ccc(CCN2CCc3ccccc3C2)cc1 ?
FALSE

Recorded test call requested for NC1=NNC2(C(N)=N1)c1ccccc1-c1ccccc12
FALSE

Hi team, can someone confirm the assay call for CC1=C(C(=O)NCc2ccccc2)C(c2ccccc2)C(C(=O)NCc2ccccc2)=C(C)N1 ?
FALSE

Per the records of this test, what outcome belongs to NCCNCCNc1ccc(NCCNCCN)c2c1C(=O)c1c(O)ccc(O)c1C2=O ?
FALSE

State the result this test recorded for CCc1nc2ccc(NCCN(C)C)c3c(=O)c4ccccc4n1c23 .
FALSE

Please state the recorded outcome for this molecule: CN(C)CCCCN1c2ccccc2Sc2ccc(N=[N+]=[N-])cc21
FALSE

Could you kindly confirm the outcome this assay logged for Oc1ccc(O)c(Cc2ccccc2)c1 ?
TRUE

Hi, sorry to bother you, what did the test record for S=C1SCN(C2CCCCC2)CN1C1CCCCC1 ?
FALSE

Could you check what this test reported for C=C1C(=O)OC2CC1C(OC(C)=O)C/C(C)=C/CC/C(C)=C\CCC2(C)O (stereo not given) ?
FALSE

Outcome? CCCOC(=O)C(F)C(Br)C(=O)OCCC (stereo not given)
TRUE

State the result this test recorded for CCc1c(Cl)c(C)cc(O)c1Cl .
FALSE

Write down the call the test reported for this molecule. Item: CNC(=O)OCc1c(COC(=O)NC)c(-c2ccc(Cl)c(Cl)c2)n2c1SCC2
FALSE
